Data provenance is patent US20220402948A1.

Target: Ba/F3 cells with EGFR Δ19del/T790M/C797S mutation gene stably overexpressed (Homo sapiens, UniProt P00533, T790M/C797S, cells depend on it, form not given)
Sequence (P00533 with tags, fused parts or gaps DEL746-750/T790M/C797S, form open): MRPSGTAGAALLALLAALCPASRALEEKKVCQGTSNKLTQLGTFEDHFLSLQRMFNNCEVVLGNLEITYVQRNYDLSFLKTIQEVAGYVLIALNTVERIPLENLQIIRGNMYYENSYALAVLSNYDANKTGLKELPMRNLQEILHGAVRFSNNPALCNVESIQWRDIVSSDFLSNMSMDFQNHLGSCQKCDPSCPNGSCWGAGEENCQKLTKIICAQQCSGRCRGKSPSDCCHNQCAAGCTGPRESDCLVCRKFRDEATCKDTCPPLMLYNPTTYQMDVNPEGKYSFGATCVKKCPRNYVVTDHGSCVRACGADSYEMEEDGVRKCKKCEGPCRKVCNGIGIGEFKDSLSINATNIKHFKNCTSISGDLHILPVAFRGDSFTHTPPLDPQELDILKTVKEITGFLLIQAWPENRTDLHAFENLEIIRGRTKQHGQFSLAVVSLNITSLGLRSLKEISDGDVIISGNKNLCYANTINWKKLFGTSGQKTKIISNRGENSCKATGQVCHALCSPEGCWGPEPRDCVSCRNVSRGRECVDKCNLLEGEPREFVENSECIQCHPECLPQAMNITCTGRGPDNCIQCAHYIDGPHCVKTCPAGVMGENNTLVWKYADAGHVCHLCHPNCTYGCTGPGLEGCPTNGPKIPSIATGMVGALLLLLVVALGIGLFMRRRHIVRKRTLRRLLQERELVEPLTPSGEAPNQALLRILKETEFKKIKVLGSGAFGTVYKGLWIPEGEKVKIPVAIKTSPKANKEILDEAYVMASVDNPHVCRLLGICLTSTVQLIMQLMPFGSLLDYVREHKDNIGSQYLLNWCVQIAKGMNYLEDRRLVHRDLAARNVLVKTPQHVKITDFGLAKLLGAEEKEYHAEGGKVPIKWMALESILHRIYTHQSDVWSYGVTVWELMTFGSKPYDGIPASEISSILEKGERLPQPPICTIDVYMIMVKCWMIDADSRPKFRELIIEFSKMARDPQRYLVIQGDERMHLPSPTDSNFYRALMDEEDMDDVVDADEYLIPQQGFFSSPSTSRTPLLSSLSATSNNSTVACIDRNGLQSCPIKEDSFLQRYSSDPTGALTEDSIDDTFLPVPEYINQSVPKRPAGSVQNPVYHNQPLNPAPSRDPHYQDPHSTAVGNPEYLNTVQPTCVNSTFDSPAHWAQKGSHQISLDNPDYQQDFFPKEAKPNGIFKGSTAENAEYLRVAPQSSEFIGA
Assay: Ba/F3-Δ19del/T790M/C797S cell proliferation assay (CellTiter Glo, 72 hours)
Format: cell-based
Conditions: Table 2, read-out: EGFR Δ19del/T790M/C797S IC50
Method: Cell line: Ba/F3 cells with EGFR Δ19del/T790M/C797S mutation gene stably overexpressed named Ba/F3-Δ119del/T90M/C797S, and A431 and Ba/F3-EGFR wild-type cell line. a) Centrifuge the growth cells in logarithmic phase at 1000 rpm for 5 minutes, resuspend the cells in culture medium, and then count the cells; […] c) Read luminous signal value with PerkinElmer reader, […] The data were analyzed by GraphPad Prism 6.0 software to obtain the fitting curve of compound activity. […]

{"Compound": "CCc1cc(Nc2ncc(Br)c(Nc3ccc(-c4cnc(C5CC5)cn4)cc3P(C)(C)=O)n2)c(OC)cc1N1CCC(N2CCN(C)CC2)CC1 [Compound 79]", "GI50 [nM]": 10.7}
{"Compound": "COc1cc(Nc2ncc(Br)c(Nc3ccc(-c4nccs4)cc3P(C)(C)=O)n2)c(C)cc1N1CCC(N2CCN(C)CC2)CC1 [Compound K-019]", "GI50 [nM]": 16}
{"Compound": "COc1cc(Nc2ncc(Br)c(Nc3ccc(-c4cnccn4)cc3P(C)(C)=O)n2)c(C)cc1N1CCC(N2CCN(C)CC2)CC1 [Compound K-017]", "GI50 [nM]": 12}
{"Compound": "COc1cc(Nc2ncc(Br)c(Nc3ccc(-c4cnn(C)c4)cc3P(C)(C)=O)n2)c(C)cc1N1CCOCC1 [Compound K-030]", "GI50 [nM]": 3.6}
{"Compound": "CCc1cc(Nc2ncc(Br)c(Nc3ccc(-c4ncn(C)n4)cc3P(C)(C)=O)n2)c(OC)cc1N1CCC(N2CCN(C)CC2)CC1 [Compound 31]", "GI50 [nM]": 20.8}
{"Compound": "CCc1cc(Nc2ncc(Br)c(Nc3ccc(-c4cnn(C)c4)cc3P(C)(C)=O)n2)c(OC)cc1N1CCC(N(C)C)CC1 [Compound K-044]", "GI50 [nM]": 3.8}

====

Target: Ba/F3-EGFR wild-type cell line (Homo sapiens, UniProt P00533)
Sequence (P00533 whole entry, change not shown): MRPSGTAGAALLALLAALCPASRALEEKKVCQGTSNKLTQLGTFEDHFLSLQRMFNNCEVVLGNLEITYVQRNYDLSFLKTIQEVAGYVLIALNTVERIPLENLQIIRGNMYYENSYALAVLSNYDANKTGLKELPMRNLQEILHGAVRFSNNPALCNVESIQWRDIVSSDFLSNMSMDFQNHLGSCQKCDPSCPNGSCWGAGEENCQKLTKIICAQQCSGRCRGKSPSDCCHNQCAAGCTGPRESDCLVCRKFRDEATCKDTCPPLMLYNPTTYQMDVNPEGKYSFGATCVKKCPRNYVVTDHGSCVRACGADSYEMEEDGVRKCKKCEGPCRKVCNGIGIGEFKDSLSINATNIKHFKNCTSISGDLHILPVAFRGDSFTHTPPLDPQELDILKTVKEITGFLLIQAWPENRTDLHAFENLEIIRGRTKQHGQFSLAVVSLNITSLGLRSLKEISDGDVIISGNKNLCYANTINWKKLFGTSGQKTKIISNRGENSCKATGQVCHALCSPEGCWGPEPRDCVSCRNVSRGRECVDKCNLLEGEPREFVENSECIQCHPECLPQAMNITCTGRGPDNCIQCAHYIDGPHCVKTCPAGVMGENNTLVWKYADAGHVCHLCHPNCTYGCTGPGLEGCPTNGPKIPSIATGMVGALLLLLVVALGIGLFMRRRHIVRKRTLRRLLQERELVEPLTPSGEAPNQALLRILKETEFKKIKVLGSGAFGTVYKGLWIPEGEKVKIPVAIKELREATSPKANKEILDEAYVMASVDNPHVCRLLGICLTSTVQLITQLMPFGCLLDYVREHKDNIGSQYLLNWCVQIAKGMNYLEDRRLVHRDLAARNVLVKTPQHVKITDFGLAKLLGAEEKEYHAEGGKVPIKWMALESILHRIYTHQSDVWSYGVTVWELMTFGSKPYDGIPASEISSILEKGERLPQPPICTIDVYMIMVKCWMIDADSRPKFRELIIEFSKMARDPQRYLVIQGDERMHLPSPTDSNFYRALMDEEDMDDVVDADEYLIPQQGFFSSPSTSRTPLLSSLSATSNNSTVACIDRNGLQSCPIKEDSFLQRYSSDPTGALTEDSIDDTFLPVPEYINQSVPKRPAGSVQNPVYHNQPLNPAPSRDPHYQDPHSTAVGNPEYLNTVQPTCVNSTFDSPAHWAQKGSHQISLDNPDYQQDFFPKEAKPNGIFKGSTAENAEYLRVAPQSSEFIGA
Assay: Ba/F3-EGFR wild-type cell proliferation assay (CellTiter Glo, 72 hours)
Format: cell-based
Conditions: Table 2, read-out: EGFR WT IC50
Reported GI50 values follow for various compounds
Property Name: GI50 (nM)

{"Smiles Code": "CCc1cc(Nc2ncc(Br)c(Nc3ccc(-c4cnc(OC)nc4)cc3P(C)(C)=O)n2)c(OC)cc1N1CCC(N2CCN(C)CC2)CC1", "Result Value": 180}
{"Smiles Code": "COc1cc(Nc2ncc(Br)c(Nc3ccc(-c4cnn(C)n4)c(F)c3P(C)(C)=O)n2)c(C)cc1N1CCC(N2CCN(C)CC2)CC1", "Result Value": 46}
{"Smiles Code": "CCOc1ncc(-c2ccc(Nc3nc(Nc4cc(CC)c(N5CCC(N6CCN(C)CC6)CC5)cc4OC)ncc3Br)c(P(C)(C)=O)c2)cn1", "Result Value": 352}
{"Smiles Code": "COc1cc(Nc2ncc(Br)c(Nc3ccc(-c4cnn(C)n4)cc3P(C)(C)=O)n2)c(C)cc1N1CCC(N2CCOCC2)CC1", "Result Value": 84}
{"Smiles Code": "COc1cc(Nc2ncc(Br)c(Nc3ccc(-c4cnccn4)cc3P(C)(C)=O)n2)c(C)cc1N1CCC(N2CCN(C)CC2)CC1", "Result Value": 445}
{"Smiles Code": "CCc1cc(Nc2ncc(Br)c(Nc3ccc(-c4cnc(C)cn4)cc3P(C)(C)=O)n2)c(OC)cc1N1CCC(N2CCN(C)CC2)CC1", "Result Value": 132}

====

Catalogue of GI50 values
Molecular target: Ba/F3-EGFR wild-type cell line (Homo sapiens, UniProt P00533)
Assay: Ba/F3-EGFR wild-type cell proliferation assay (CellTiter Glo, 72 hours)
Type: cell-based
Conditions: Table 2, read-out: EGFR WT IC50

{"Compound": "CCc1cc(Nc2ncc(Br)c(Nc3ccc(-c4ccccc4C)cc3P(C)(C)=O)n2)c(OC)cc1N1CCC(N2CCOCC2)CC1", "GI50 [nM]": 373}
{"Compound": "COc1cnn(-c2ccc(Nc3nc(Nc4cc(C)c(N5CCN(C6CCN(C)CC6)CC5)cc4OC)ncc3Br)c(P(C)(C)=O)c2)c1", "GI50 [nM]": 285}
{"Compound": "COc1cc(Nc2ncc(Br)c(Nc3ccc(-c4nccs4)cc3P(C)(C)=O)n2)c(C)cc1N1CCC(N2CCN(C)CC2)CC1", "GI50 [nM]": 48.7}
{"Compound": "COc1cc(N2CCC(N3CCN(C)CC3)CC2)ccc1Nc1ncc(Cl)c(Nc2ccccc2P(C)(C)=O)n1 [Brigatinib, reference compound]", "GI50 [nM]": 22.5}
{"Compound": "CCc1cc(Nc2ncc(Br)c(Nc3ccc(-c4cnn(CC)c4)cc3P(C)(C)=O)n2)c(OC)cc1N1CCC(N2CCN(C)CC2)CC1", "GI50 [nM]": 84.3}
{"Compound": "CCc1cc(Nc2ncc(Br)c(Nc3ccc(-c4ccc(C)nc4)cc3P(C)(C)=O)n2)c(OC)cc1N1CCC(N2CCN(C)CC2)CC1", "GI50 [nM]": 238}

====

Target: UniProtKB P00533
Assay: EGFR WT kinase test (mobility variation analysis, Caliper EZ Reader)
Details: kinase enzymatic activity, Table 1
Could you please mark label 1 for values of IC50 below 40 nM and label 0 for values at or above it?

{"Molecule": "CCc1cc(Nc2ncc(Br)c(Nc3ccc(-c4ccccc4F)cc3P(C)(C)=O)n2)c(OC)cc1N1CCC(N2CCOCC2)CC1 [Compound K-048]", "Assigned Class": "label 0"}
{"Molecule": "CCc1cc(Nc2ncc(Br)c(Nc3ccc(-c4ncccn4)cc3P(C)(C)=O)n2)c(OC)cc1N1CCC(N2CCN(C)CC2)CC1 [Compound 26]", "Assigned Class": "label 1"}
{"Molecule": "CCc1cnc(-c2ccc(Nc3nc(Nc4cc(CC)c(N5CCC(N6CCN(C)CC6)CC5)cc4OC)ncc3Br)c(P(C)(C)=O)c2)nc1 [Compound 70]", "Assigned Class": "label 1"}
{"Molecule": "CCc1cc(Nc2ncc(Br)c(Nc3ccc(-c4cc5cc(C#N)ccc5[nH]4)cc3P(C)(C)=O)n2)c(OC)cc1N1CCC(N2CCN(C)CC2)CC1 [Compound 43]", "Assigned Class": "label 0"}
{"Molecule": "CCc1cc(Nc2ncc(Br)c(Nc3ccc(-c4cccc5c4COC5)cc3P(C)(C)=O)n2)c(OC)cc1N1CCC(N2CCN(C)CC2)CC1 [Compound 11]", "Assigned Class": "label 1"}
{"Molecule": "CCc1cc(Nc2ncc(Br)c(Nc3ccc(-n4cc(C)cn4)cc3P(C)(C)=O)n2)c(OC)cc1N1CCC(N2CCN(C)CC2)CC1 [Compound K-069]", "Assigned Class": "label 1"}

====

Biological target: Ba/F3-EGFR wild-type cell line (Homo sapiens)
Assay: Ba/F3-EGFR wild-type cell proliferation assay (CellTiter Glo, 72 hours)
Format: cell-based
Settings: Table 2, read-out: EGFR WT IC50
Rule: GI50 below 200 nM gives TRUE. Equal to or above 200 nM gives FALSE.

{"Smiles Code": "CCc1cc(Nc2ncc(Br)c(Nc3ccc(-c4ccc(C)cn4)cc3P(C)(C)=O)n2)c(OC)cc1N1CCC(N2CCN(C)CC2)CC1", "Tested System": "Ba/F3-EGFR wild-type cell line (Homo sapiens)", "Assigned Class": "FALSE"}
{"Smiles Code": "COc1cnn(-c2ccc(Nc3nc(Nc4cc(-c5cnn(C)c5)c(N5CCN(C6CCCC6)CC5)cc4OC)ncc3Br)c(P(C)(C)=O)c2)c1", "Tested System": "Ba/F3-EGFR wild-type cell line (Homo sapiens)", "Assigned Class": "TRUE"}
{"Smiles Code": "CCOc1cc(Nc2ncc(Br)c(Nc3ccc(-c4cnn(C)n4)c(F)c3P(C)(C)=O)n2)c(C)cc1N1CCOCC1", "Tested System": "Ba/F3-EGFR wild-type cell line (Homo sapiens)", "Assigned Class": "FALSE"}
{"Smiles Code": "C#Cc1cncc(-c2ccc(Nc3nc(Nc4cc(CC)c(N5CCC(N6CCN(C)CC6)CC5)cc4OC)ncc3Br)c(P(C)(C)=O)c2)n1", "Tested System": "Ba/F3-EGFR wild-type cell line (Homo sapiens)", "Assigned Class": "TRUE"}
{"Smiles Code": "CCc1cc(Nc2ncc(Br)c(Nc3ccc(-n4cc(COC)cn4)cc3P(C)(C)=O)n2)c(OC)cc1N1CCC(N2CCN(C)CC2)CC1", "Tested System": "Ba/F3-EGFR wild-type cell line (Homo sapiens)", "Assigned Class": "FALSE"}

====

Tested on: A431
Test: A431 cell proliferation assay (CellTiter Glo, 72 hours)
Format: cell-based
Conditions: Homo sapiens, A-431, 72 h, cell proliferation, A431, 72 hours, Table 2; read-out: A431 IC50
Lab note: cut-off is 1000 nM. Strictly less in IC50 is satisfied. Exactly 1000 nM or more is not satisfied.

{"Compound": "CCc1cc(Nc2ncc(Br)c(Nc3ccc(-n4cc(COC)cn4)cc3P(C)(C)=O)n2)c(OC)cc1N1CCC(N2CCN(C)CC2)CC1", "Tested System": "A431", "Assigned Class": "not satisfied"}
{"Compound": "COc1cnn(-c2ccc(Nc3nc(Nc4cc(C)c(N5CCN(C6CCN(C)CC6)CC5)cc4OC)ncc3Br)c(P(C)(C)=O)c2)c1", "Tested System": "A431", "Assigned Class": "not satisfied"}
{"Compound": "COc1cc(Nc2ncc(Br)c(Nc3ccc(-c4cnccn4)cc3P(C)(C)=O)n2)c(C)cc1N1CCC(N2CCN(C)CC2)CC1", "Tested System": "A431", "Assigned Class": "satisfied"}
{"Compound": "CCc1cc(Nc2ncc(Br)c(Nc3ccc(-n4cc(OC)cn4)cc3P(C)(C)=O)n2)c(OC)cc1N1CCC(N2CCCCC2)CC1", "Tested System": "A431", "Assigned Class": "not satisfied"}
{"Compound": "CCc1cc(Nc2ncc(Br)c(Nc3ccc(-c4cnsc4)cc3P(C)(C)=O)n2)c(OC)cc1N1CCC(N2CCN(C)CC2)CC1", "Tested System": "A431", "Assigned Class": "satisfied"}
{"Compound": "CCc1cc(Nc2ncc(Br)c(Nc3ccc(-c4cn(C)nc4OC)cc3P(C)(C)=O)n2)c(OC)cc1N1CCC(N2CCN(C)CC2)CC1", "Tested System": "A431", "Assigned Class": "satisfied"}
{"Compound": "CCc1cc(Nc2ncc(Br)c(Nc3ccc(-c4ncc(OC)cn4)cc3P(C)(C)=O)n2)c(OC)cc1N1CCC(N2CCN(C)CC2)CC1", "Tested System": "A431", "Assigned Class": "not satisfied"}
{"Compound": "CCc1cc(Nc2ncc(Br)c(Nc3ccc(-c4cnn(CCN5CCOCC5)c4)cc3P(C)(C)=O)n2)c(OC)cc1N1CCC(N2CCN(C)CC2)CC1", "Tested System": "A431", "Assigned Class": "satisfied"}
{"Compound": "COc1cnn(-c2ccc(Nc3nc(Nc4cc(OC)c(N5CCOCC5)cc4C)ncc3Br)c(P(C)(C)=O)c2)c1", "Tested System": "A431", "Assigned Class": "not satisfied"}
{"Compound": "CCc1cc(Nc2ncc(Br)c(Nc3ccc(-c4cnn(C)n4)cc3P(C)(C)=O)n2)c(OC)cc1N1CCC(N2CCOCC2)CC1", "Tested System": "A431", "Assigned Class": "not satisfied"}
{"Compound": "COc1cc(Nc2ncc(Br)c(Nc3ccc(-c4cnn(C)n4)cc3P(C)(C)=O)n2)c(C)cc1N1CCC(N2CCOCC2)CC1", "Tested System": "A431", "Assigned Class": "not satisfied"}
{"Compound": "CCc1cc(Nc2ncc(Br)c(Nc3ccc(-c4cnc(C5CC5)cn4)cc3P(C)(C)=O)n2)c(OC)cc1N1CCC(N2CCN(C)CC2)CC1", "Tested System": "A431", "Assigned Class": "not satisfied"}
{"Compound": "CCOc1ncc(-c2ccc(Nc3nc(Nc4cc(CC)c(N5CCC(N6CCN(C)CC6)CC5)cc4OC)ncc3Br)c(P(C)(C)=O)c2)cn1", "Tested System": "A431", "Assigned Class": "not satisfied"}
{"Compound": "CCc1cc(Nc2ncc(Br)c(Nc3ccc(-c4cnn(CC)c4)cc3P(C)(C)=O)n2)c(OC)cc1N1CCC(N2CCN(C)CC2)CC1", "Tested System": "A431", "Assigned Class": "satisfied"}
{"Compound": "CCc1cc(Nc2ncc(Cl)c(Nc3ccc(-c4ccc5ocnc5c4)cc3P(C)(C)=O)n2)c(OC)cc1N1CCC(N2CCN(C)CC2)CC1", "Tested System": "A431", "Assigned Class": "not satisfied"}
{"Compound": "CCc1cc(Nc2ncc(Br)c(Nc3ccc(-c4cnn(C)c4)cc3P(C)(C)=O)n2)c(OC)cc1N1CCC(N2CCOCC2)CC1", "Tested System": "A431", "Assigned Class": "satisfied"}
{"Compound": "CCc1cc(Nc2ncc(Cl)c(Nc3ccc(-c4cnn5c4CCCC5)cc3P(C)(C)=O)n2)c(OC)cc1N1CCC(N2CCN(C)CC2)CC1", "Tested System": "A431", "Assigned Class": "not satisfied"}
{"Compound": "CCc1cc(Nc2ncc(Br)c(Nc3ccc(-c4ccc(C)nn4)cc3P(C)(C)=O)n2)c(OC)cc1N1CCC(N2CCN(C)CC2)CC1", "Tested System": "A431", "Assigned Class": "satisfied"}
{"Compound": "CCc1cc(Nc2ncc(Br)c(Nc3ccc(-c4cn(C)c5ncccc45)cc3P(C)(C)=O)n2)c(OC)cc1N1CCC(N2CCN(C)CC2)CC1", "Tested System": "A431", "Assigned Class": "not satisfied"}
{"Compound": "COc1cc(N2CCC(N3CCN(C)CC3)CC2)ccc1Nc1ncc(Cl)c(Nc2ccc(C)cc2P(C)(C)=O)n1 [compound 1, reference compound]", "Tested System": "A431", "Assigned Class": "satisfied"}
{"Compound": "CCc1cc(Nc2ncc(Br)c(Nc3ccc(-c4ccccc4C#N)cc3P(C)(C)=O)n2)c(OC)cc1N1CCC(N2CCN(C)CC2)CC1", "Tested System": "A431", "Assigned Class": "satisfied"}
{"Compound": "COc1cn(-c2ccc(Nc3nc(Nc4cc(-c5cnn(C)c5)c(N5CCN(c6cccnc6)CC5)cc4OC)ncc3Br)c(P(C)(C)=O)c2)cn1", "Tested System": "A431", "Assigned Class": "satisfied"}
{"Compound": "CCc1cc(Nc2ncc(Br)c(Nc3ccc(-c4cnn(C)n4)c(F)c3P(C)(C)=O)n2)c(OC)cc1N1CCC(N2CCN(C)CC2)CC1", "Tested System": "A431", "Assigned Class": "not satisfied"}
{"Compound": "CCc1cc(Nc2ncc(Br)c(Nc3ccc(-c4cnn(C(C)C)n4)cc3P(C)(C)=O)n2)c(OC)cc1N1CCC(N2CCN(C)CC2)CC1", "Tested System": "A431", "Assigned Class": "not satisfied"}
{"Compound": "CCOc1cnc(-c2ccc(Nc3nc(Nc4cc(CC)c(N5CCC(N6CCN(C)CC6)CC5)cc4OC)ncc3Br)c(P(C)(C)=O)c2)nc1", "Tested System": "A431", "Assigned Class": "not satisfied"}
